Here, each record is paired with measured ELISA absorbance at 450 nm data.
Target: T1, recombinant human DLL4 (Cat# 1506-D4/CF, R&D Systems) (human, UniProt Q9NR61 27-529)
T1 construct: Bought protein; also called hDLL4; rHuman DLL4
Assay: ELISA, DLL4 coated, Fab 100 nM
Record the value in A450, omitting the unit from your answer.

{"binder": "Fab VH1-46_IGHD6-6*01_IGHJ1*01 S102A/S103P/S104F/H111F & L6_IGKJ1*01 S28N/S30D/S31H A55G (Fab, V domains shown, Fab made in E. coli: VH on CH1 with His6 and Flag tags (Plasmid A), VL on kappa CL (Plasmid C); also called H: APFF & L: NDH A55G) VH: QVQLVQSGAEVKKPGASVKVSCKASGYTFTSYYMHWVRQAPGQGLEWMGIINPSGGSTSYAQKFQGRVTMTRDTSTSTVYMELSSLRSEDTAVYYCAREEYAPFSAEYFQFWGQGTLVTVSS VL: EIVLTQSPATLSLSPGERATLSCRASQNVDHYLAWYQQKPGQAPRLLIYDASNRGTGIPARFSGSGSGTDFTLTISSLEPEDFAVYYCQQRSNWPPWTFGQGTKVEIKR", "readout_unit": "A450", "ELISA absorbance at 450 nm": 0.814}

# context switch: different binder, same ELISA absorbance at 450 nm
ELISA absorbance at 450 nm recorded for this binder, Fab VH5-51_IGHD5-18*01>3_IGHJ4*01 G100K/G104T G24T/S28R/G35V & V3-4_IGLJ1*01 V91L/S96P S52M (Fab, V domains shown, Fab made in E. coli: VH on CH1 with His6 and Flag tags (Plasmid A), VL on lambda CL (Plasmid E); also called H: KT TRV & L: LP S52M) VH: EVQLVQSGAEVKKPGESLKISCKTSGYRFTSYWIVWVRQMPGKGLEWMGIIYPGDSDTRYSPSFQGQVTISADKSISTAYLQWSSLKASDTAMYYCARRKYSYTYDYFDYWGQGTLVTVSS VL: QTVVTQEPSFSVSPGGTVTLTCGLSSGSVSTSYYPSWYQQTPGQAPRTLIYMTNTRSSGVPDRFSGSILGNKAALTITGAQADDESDYYCLLYMGPGISYVFGTGTKVTVL , is 0.24
